- System: α7 integrin (LacZ reporter in α7+/LacZ myotubes)
- Assay procedure: Myotube α7 integrin FDG assay (Burkin assay in myotubes, 96-well)
- Assay type: cell-based, mouse
- Cond: 1 uM, myotubes
Quantity kind: Burkin Assay in Myotubes (signal relative to DMSO)
The response must contain the number and no unit.

INSERT INTO measurements (molecule, target_desc, experimental_value) VALUES
  ('Cc1cccc(OCc2nc(C#N)c(N3CCCC3)o2)c1 [MLS000332693-01]', 'α7 integrin (LacZ reporter in α7+/LacZ myotubes)', 0.9631),
  ('CC(NC(=O)c1cn(C)c2ccc(S(=O)(=O)N3CCCC3)cc2c1=O)c1ccccc1 (stereo not drawn) [MLS000913052-01]', 'α7 integrin (LacZ reporter in α7+/LacZ myotubes)', 0.9014),
  ('COc1ccccc1-c1coc2c(CN3C(C)CCCC3C)c(O)ccc2c1=O (stereo not drawn) [MLS001163140-01]', 'α7 integrin (LacZ reporter in α7+/LacZ myotubes)', 1.035),
  ('Cc1ccccc1C(=O)Nc1scc(-c2ccc(Br)cc2)c1C(=O)O [MLS001179267-01]', 'α7 integrin (LacZ reporter in α7+/LacZ myotubes)', 0.8787),
  ('CC(Oc1ccccc1)C(=O)N1CCN(C(=O)C(C)Oc2ccccc2)CC1 (stereo not drawn) [MLS001162337-01]', 'α7 integrin (LacZ reporter in α7+/LacZ myotubes)', 0.885),
  ('Cc1ccc(NC(=O)CC2COc3ccccc3O2)cc1 (stereo not drawn) [MLS000534926-01]', 'α7 integrin (LacZ reporter in α7+/LacZ myotubes)', 0.9445),
  ('C=CCN(CC=C)C(=O)c1ccc(OC2CCN(S(=O)(=O)N(C)C)CC2)cc1 [MLS000693729-01]', 'α7 integrin (LacZ reporter in α7+/LacZ myotubes)', 0.7707),
  ('CC(=O)Nc1ccc(NC(=O)[C@@H](NC(=O)c2cccc(C)c2)C(C)C)cc1 [MLS001176897-01]', 'α7 integrin (LacZ reporter in α7+/LacZ myotubes)', 1.073);

Please find the next molecule below.
Reading of Burkin Assay in Myotubes (signal relative to DMSO) for COC(=O)c1ccc(COC(=O)CNC(=O)c2cccs2)cc1 [MLS001123810-01] with α7 integrin (LacZ reporter in α7+/LacZ myotubes): 0.9657

Data credit: patent US9980943B2
